Each recorded value in this set is attributed to paper PMC8224453.

- Run Description: In vivo pharmacokinetics after intratracheal instillation
- Parameters: species or system mouse
- Details: male, CD1, mouse, plasma, inhaled or intranasal, 0.5 mg/kg, mice, intratracheal 0.5 mg kg^−1, plasma; read-out: plasma C max
Readout: Cmax (ng/mL)
Report only the number, with the unit ng/mL understood.

### Prompt Would you mind telling me what Cmax value was observed for FC(F)(F)c1cc(NCc2cn(-c3ccc(Oc4ccccc4)cc3)nn2)ccn1 ?
### Response 62.6

* * *

Field: half-life. Provide a value for each of the compounds that follow.
- Run Description: In vivo pharmacokinetics after intratracheal instillation
- Parameters: species or system mouse
- Details: male, CD1, mouse, inhaled or intranasal, 0.5 mg kg^−1; mice, intratracheal, lung tissue; read-out: t1/2 lung (converted)
Report only the number, with the unit h understood.

### Prompt Would you mind telling me what half-life value was observed for FC(F)(F)c1cc(NCc2cn(-c3ccc(Oc4ccccc4)cc3)nn2)ccn1 ?
### Response 1.08

### Prompt Would you mind telling me what half-life value was observed for NC[C@H]1O[C@H](O[C@H]2[C@H](O)[C@@H](O[C@H]3O[C@H](CO)[C@@H](O)[C@H](N)[C@H]3O)[C@H](N)C[C@@H]2N)[C@H](N)C[C@@H]1O ?
### Response 1.13

* * *

- Run Description: In vivo pharmacokinetics after intratracheal instillation
- Parameters: species or system mouse
- Details: male, CD1, mouse, inhaled or intranasal, 0.5 mg kg^−1; mice, intratracheal, plasma
Field: CL/F. Provide a value for each of the compounds that follow.
Report only the number, with the unit mL/min/kg understood.

### Prompt Would you mind telling me what CL/F value was observed for FC(F)(F)c1cc(NCc2cn(-c3ccc(Oc4ccccc4)cc3)nn2)ccn1 [Compound 4] ?
### Response 157

### Prompt Would you mind telling me what CL/F value was observed for NC[C@H]1O[C@H](O[C@H]2[C@H](O)[C@@H](O[C@H]3O[C@H](CO)[C@@H](O)[C@H](N)[C@H]3O)[C@H](N)C[C@@H]2N)[C@H](N)C[C@@H]1O [Tobramycin, tobramycin] ?
### Response 45.3

* * *

- Run Description: Metabolic stability, human liver S9
- Format: in vitro ADME
- Details: pooled human liver S9 fraction, Table 2, read-out: Metabolic stability t 1/2 S9 human
Field: half-life at 1 μM. Provide a value for each of the compounds that follow.
Lab note: write values as number then unit, every time.

### Prompt Would you mind telling me what half-life at 1 μM value was observed for FC(F)(F)c1cc(NCc2cn(-c3ccc(Oc4ccccc4)cc3)nn2)ccn1 ?
### Response 2.82 h

### Prompt Would you mind telling me what half-life at 1 μM value was observed for COc1ccc(-n2cc(CNc3ccnc(C(F)(F)F)c3)nn2)cc1Cl ?
### Response 0.7 h

* * *

- Measurement Target: CYP1A (Homo sapiens)
- Sequence (P05177 2-516 limits assumed): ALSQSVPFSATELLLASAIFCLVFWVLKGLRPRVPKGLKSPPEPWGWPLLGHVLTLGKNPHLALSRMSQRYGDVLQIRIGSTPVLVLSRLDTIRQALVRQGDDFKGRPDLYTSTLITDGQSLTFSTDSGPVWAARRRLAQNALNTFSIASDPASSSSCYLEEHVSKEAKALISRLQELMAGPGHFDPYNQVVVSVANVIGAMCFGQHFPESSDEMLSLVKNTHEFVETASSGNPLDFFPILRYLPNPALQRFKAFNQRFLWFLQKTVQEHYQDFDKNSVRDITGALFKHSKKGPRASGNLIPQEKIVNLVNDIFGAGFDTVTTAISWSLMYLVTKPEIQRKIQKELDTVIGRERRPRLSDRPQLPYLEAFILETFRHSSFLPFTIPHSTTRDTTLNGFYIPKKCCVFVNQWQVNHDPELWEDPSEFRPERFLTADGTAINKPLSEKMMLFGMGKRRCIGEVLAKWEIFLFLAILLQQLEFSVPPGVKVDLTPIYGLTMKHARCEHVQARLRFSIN
Readout: IC50 (µM)
Report only the number, with the unit µM understood.

### Prompt Would you mind telling me what IC50 value was observed for COc1ccc(-n2cc(CNc3ccnc(C(F)(F)F)c3)nn2)cc1Cl [Compound 17] ?
### Response 22.1
